For each entry below, report its log10(Ki) value.
- Test description: Inhibition of HCV NS4A-tethered single chain NS3 serine protease by spectrophotometric assay
- Parameters: species or system Hepacivirus hominis
Quick note: numbers are log10 of Ki, with nM as the unit.

Check out these entries, answers already filled in.
# Compound, log10(Ki)
records = [
    ("C=CCNC(=O)C(=O)C(CCC)NC(=O)[C@@H]1[C@@H]2[C@H](CN1C(=O)[C@@H](NC(=O)N[C@@H](CN1CCCCC1=O)C(C)(C)C)C(C)(C)C)C2(C)C (some centres not stated)", 1.15),
    ("C=CCNC(=O)C(=O)C(CCC)NC(=O)[C@@H]1[C@@H]2[C@H](CN1C(=O)[C@@H](NC(=O)N[C@@H](CN1CCCC(C)(C)C1=O)C(C)(C)C)C(C)(C)C)C2(C)C (some centres not stated)", 1.95),
    ("C=CCNC(=O)C(=O)C(CCC)NC(=O)[C@@H]1[C@@H]2[C@H](CN1C(=O)[C@@H](NC(=O)N[C@@H](CN1CCCOC1=O)C(C)(C)C)C(C)(C)C)C2(C)C (some centres not stated)", 1.00),
]

Dear colleague, could you send me log10(Ki) for each of the items below? Thanks.
1. C=CCNC(=O)C(=O)C(CCC)NC(=O)[C@@H]1[C@@H]2[C@H](CN1C(=O)[C@@H](NC(=O)N[C@@H](CN1CC3CCC(C3)C1=O)C(C)(C)C)C(C)(C)C)C2(C)C (some centres not stated)
2. C=CCNC(=O)C(=O)C(CC1CC1)NC(=O)[C@@H]1[C@@H]2[C@H](CN1C(=O)[C@@H](NC(=O)N[C@@H](CN1CCC(C)(C)CC1=O)C(C)(C)C)C(C)(C)C)C2(C)C (some centres not stated)
3. C=CCNC(=O)C(=O)C(CCC)NC(=O)[C@@H]1[C@@H]2[C@H](CN1C(=O)[C@@H](NC(=O)N[C@@H](CN(C)C(=O)C1CC1)C(C)(C)C)C(C)(C)C)C2(C)C (some centres not stated)
4. C=CCNC(=O)C(=O)C(CCC)NC(=O)[C@@H]1[C@@H]2[C@H](CN1C(=O)[C@@H](NC(=O)N[C@@H](CN1CCC(C)(C)CC1=O)C(C)(C)C)C1Cc3ccccc3C1)C2(C)C (some centres not stated)

(A)
0.90
1.18
1.96
0.85
